These molecules were tested on Nav1.5 (Homo sapiens (Human), UniProt Q14524); IC50 is the recorded read-out.
Sequence (Q14524 other isoform, or with tags, fused parts or gaps): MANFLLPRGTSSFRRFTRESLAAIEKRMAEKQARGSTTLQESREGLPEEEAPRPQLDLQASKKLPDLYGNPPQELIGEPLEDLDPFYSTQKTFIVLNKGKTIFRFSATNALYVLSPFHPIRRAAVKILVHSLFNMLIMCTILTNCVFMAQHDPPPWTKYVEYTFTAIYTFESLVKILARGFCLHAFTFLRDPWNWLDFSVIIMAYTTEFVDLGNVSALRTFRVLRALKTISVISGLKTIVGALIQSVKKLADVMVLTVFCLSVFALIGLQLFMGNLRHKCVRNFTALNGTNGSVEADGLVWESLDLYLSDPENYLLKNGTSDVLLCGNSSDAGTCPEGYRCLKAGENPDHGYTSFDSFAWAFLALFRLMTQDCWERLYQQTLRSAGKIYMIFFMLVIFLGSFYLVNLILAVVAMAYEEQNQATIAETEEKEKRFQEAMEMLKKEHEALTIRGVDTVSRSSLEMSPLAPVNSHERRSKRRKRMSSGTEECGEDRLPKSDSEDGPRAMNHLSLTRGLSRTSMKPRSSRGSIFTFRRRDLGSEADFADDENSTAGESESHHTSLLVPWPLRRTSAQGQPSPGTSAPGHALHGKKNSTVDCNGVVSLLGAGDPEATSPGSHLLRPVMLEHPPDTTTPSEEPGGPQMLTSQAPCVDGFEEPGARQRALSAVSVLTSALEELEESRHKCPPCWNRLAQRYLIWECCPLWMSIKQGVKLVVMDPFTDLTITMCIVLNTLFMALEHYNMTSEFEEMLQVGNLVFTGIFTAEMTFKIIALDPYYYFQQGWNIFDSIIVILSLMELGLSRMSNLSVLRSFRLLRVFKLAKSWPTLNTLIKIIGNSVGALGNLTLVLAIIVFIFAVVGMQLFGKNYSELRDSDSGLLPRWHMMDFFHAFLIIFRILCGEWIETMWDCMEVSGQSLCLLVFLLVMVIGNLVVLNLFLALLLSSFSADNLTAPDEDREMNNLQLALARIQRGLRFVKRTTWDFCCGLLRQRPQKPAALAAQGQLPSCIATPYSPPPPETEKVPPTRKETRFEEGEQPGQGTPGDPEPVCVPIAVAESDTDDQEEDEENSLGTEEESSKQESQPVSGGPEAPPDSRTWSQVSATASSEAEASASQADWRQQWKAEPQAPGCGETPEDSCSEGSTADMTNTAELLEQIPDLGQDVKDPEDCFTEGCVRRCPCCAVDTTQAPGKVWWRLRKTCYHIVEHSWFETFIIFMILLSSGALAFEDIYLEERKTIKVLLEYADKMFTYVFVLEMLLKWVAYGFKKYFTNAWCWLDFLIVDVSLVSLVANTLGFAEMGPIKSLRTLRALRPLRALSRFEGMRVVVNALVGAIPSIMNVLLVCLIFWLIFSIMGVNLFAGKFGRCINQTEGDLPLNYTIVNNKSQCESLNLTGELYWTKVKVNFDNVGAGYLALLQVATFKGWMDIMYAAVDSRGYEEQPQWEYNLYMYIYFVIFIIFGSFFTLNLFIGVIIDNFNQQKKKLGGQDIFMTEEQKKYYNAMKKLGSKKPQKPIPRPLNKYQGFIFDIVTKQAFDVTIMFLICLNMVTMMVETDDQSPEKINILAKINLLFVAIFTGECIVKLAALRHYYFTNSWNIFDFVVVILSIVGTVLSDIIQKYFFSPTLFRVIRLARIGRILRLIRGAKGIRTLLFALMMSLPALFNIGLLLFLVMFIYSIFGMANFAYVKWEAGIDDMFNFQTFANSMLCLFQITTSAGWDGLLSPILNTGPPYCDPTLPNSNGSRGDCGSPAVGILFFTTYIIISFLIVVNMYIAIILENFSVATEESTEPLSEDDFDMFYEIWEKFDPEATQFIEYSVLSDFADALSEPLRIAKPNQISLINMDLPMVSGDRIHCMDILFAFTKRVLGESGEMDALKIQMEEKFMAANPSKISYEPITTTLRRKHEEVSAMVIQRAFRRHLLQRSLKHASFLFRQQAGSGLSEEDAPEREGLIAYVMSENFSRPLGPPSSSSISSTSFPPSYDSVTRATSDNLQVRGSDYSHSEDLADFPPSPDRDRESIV
Counter-ions that a name gives are not always drawn.

Task: GET /values?readout=IC50&item= O=S(=O)(Nc1cscn1)c1ccc(NCc2c(F)cccc2CN2C3CCC2CC3)c(C(F)(F)F)n1 [Example 47, trifluoroacetic acid salt]
Result: 30 µM

Task: GET /values?readout=IC50&item= Cc1nc(S(=O)(=O)Nc2cscn2)ccc1NCc1c(F)cccc1CN1C2CCC1CC2 [Example 25, trifluoroacetic acid salt]
Result: 30 µM

Next:
Task: GET /values?readout=IC50&item= Cc1nc(S(=O)(=O)Nc2cscn2)c(F)cc1NCc1c(F)cccc1CN1C2CCC1CC2 [Example 33, trifluoroacetic acid salt]
Result: 30 µM

###

Measured IC50, listed per entry for reference.
target-or-test-system: Nav1.5 (Homo sapiens (Human))
experiment-summary: Sodium Influx Assay (Flux), Nav1.5
experimental-conditions: read-out: Flux NaV1.5 IC50; sodium influx assay, Trex HEK293 cells, ANG2 dye, inactivated state
Counter-ions that a name gives are not always drawn.
A number alone suffices; assume µM.

For orientation, consider the following solved cases.
Task: GET /values?readout=IC50&item= Cc1c(NCc2c(F)cccc2CN(C)C(C)C)cnc(S(=O)(=O)Nc2cccc(F)n2)c1F
Result: 30

Task: GET /values?readout=IC50&item= Cc1nc(S(=O)(=O)Nc2cscn2)ccc1NCc1cccc(F)c1CN1CCC1 [Example 27, trifluoroacetic acid salt]
Result: 30

Task: GET /values?readout=IC50&item= Cc1nc(S(=O)(=O)Nc2cccc(F)n2)ccc1NCc1c(F)cccc1CN(C)C(C)(C)C [Example 22, trifluoroacetic acid salt]
Result: 30

Next:
Task: GET /values?readout=IC50&item= Cc1cc(S(=O)(=O)Nc2cscn2)ncc1NCc1c(F)cccc1CN1CCC1 [Example 7, formic acid salt]
Result: 30

Task: GET /values?readout=IC50&item= O=S(=O)(Nc1cscn1)c1ccc(NCc2c(F)cccc2CN2CCCC2)c(C(F)F)n1 [Example 18, formic acid salt]
Result: 21.4

Task: GET /values?readout=IC50&item= Cc1nc(S(=O)(=O)Nc2cscn2)ccc1NCc1cccc2ccncc12 [Example 16, formic acid salt]
Result: 30

###

target-or-test-system: Nav1.6 (Homo sapiens (Human))
Sequence (Q9UQD0 whole entry, looked up): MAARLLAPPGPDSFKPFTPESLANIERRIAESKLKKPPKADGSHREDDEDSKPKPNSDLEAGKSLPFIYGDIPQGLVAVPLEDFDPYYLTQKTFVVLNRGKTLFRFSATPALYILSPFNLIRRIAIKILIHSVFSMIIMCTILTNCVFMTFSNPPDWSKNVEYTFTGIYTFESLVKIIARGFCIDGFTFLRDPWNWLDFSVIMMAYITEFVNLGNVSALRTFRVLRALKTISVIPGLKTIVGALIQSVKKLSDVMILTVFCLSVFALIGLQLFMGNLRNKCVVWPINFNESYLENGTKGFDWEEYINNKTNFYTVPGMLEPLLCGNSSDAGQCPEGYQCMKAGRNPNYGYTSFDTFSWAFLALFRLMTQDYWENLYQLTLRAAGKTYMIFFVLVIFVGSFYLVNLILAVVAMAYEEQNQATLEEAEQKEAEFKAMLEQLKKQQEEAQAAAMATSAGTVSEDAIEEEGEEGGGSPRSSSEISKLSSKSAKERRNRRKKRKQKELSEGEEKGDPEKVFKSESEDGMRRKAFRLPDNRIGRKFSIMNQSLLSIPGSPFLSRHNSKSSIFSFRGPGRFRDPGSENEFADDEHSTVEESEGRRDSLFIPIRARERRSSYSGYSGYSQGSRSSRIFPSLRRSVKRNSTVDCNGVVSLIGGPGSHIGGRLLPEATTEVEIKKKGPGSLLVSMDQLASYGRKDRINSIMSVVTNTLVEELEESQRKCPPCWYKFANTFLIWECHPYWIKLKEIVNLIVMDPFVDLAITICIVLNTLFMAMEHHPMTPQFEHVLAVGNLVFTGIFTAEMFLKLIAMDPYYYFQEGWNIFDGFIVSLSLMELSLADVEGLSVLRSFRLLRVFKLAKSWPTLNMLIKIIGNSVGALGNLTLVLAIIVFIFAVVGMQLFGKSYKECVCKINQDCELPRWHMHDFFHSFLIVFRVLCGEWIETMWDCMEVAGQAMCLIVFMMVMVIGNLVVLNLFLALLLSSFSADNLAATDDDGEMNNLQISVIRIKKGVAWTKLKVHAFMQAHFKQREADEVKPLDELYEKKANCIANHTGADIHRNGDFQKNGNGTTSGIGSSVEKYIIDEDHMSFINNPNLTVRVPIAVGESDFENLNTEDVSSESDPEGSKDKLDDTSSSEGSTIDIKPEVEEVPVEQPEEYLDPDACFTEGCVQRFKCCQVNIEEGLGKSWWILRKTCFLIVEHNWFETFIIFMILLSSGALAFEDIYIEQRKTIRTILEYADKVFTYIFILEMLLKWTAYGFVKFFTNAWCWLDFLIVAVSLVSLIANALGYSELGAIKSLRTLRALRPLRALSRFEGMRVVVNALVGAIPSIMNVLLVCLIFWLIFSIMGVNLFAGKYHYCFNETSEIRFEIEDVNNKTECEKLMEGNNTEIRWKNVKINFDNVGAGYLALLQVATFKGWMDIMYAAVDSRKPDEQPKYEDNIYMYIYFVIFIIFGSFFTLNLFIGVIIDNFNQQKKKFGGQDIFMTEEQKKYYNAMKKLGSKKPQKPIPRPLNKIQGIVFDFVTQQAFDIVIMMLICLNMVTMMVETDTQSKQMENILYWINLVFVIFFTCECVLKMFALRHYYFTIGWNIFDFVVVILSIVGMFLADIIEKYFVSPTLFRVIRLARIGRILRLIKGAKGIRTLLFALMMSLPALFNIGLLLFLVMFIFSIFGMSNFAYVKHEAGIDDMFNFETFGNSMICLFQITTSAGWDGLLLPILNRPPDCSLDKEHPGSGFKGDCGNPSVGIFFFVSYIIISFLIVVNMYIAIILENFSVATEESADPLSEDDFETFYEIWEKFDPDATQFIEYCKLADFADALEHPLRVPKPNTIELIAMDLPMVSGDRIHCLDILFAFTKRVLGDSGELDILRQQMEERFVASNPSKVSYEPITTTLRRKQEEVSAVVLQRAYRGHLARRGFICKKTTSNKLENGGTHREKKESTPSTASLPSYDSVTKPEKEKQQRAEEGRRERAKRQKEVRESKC
Sequence (Q07699 whole entry partner, looked up): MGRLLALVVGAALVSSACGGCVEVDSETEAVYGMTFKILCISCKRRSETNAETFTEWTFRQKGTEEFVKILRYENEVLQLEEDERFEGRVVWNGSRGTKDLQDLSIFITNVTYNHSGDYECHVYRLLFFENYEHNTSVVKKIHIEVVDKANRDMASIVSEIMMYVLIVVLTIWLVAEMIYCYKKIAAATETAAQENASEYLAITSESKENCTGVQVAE
experiment-summary: Sodium Influx Assay (Flux), Nav1.6
Assay type: cell-based
experimental-conditions: Trex HEK293 cells, ANG2 dye, inactivated state
Structures can show the parent of a compound that is named as a salt.
Threshold-based label: IC50 under 2000 nM gives Yes, IC50 not under 2000 nM gives No.

Task: Just wondering, is IC50 of Cc1nc(S(=O)(=O)Nc2ccsn2)ccc1NCc1c(F)cccc1CN1CCC1 [Example 20, trifluoroacetic acid salt] below 2000 nM?
Result: Yes

###

Measured IC50, listed per entry for reference.
target-or-test-system: UniProt:Q14524
experiment-summary: Sodium Influx Assay (Flux), Nav1.5
experimental-conditions: read-out: Flux NaV1.5 IC50; sodium influx assay, Trex HEK293 cells, ANG2 dye, inactivated state
Where a name gives a salt, the structure may show the parent alone.
A number alone suffices; assume µM.

For orientation, consider the following solved cases.
Task: GET /values?readout=IC50&item= Cc1nc(NCc2c(F)cccc2CN(C)C(C)(C)C)ccc1S(=O)(=O)Nc1cscn1 [Example 10, formic acid salt]
Result: 7.76

Task: GET /values?readout=IC50&item= Cc1nc(S(=O)(=O)Nc2cscn2)ccc1N[C@@H](C)c1ccccc1F [Example 3]
Result: 30

Task: GET /values?readout=IC50&item= CN(Cc1cccc(F)c1CNc1cc(F)c(S(=O)(=O)Nc2cscn2)nc1C1CC1)C(C)(C)C [Example 49]
Result: 7.5

Task: GET /values?readout=IC50&item= C[C@H](Nc1ncc(S(=O)(=O)Nc2cscn2)cc1Cl)c1cc(Cl)ccc1F [Example 1]
Result: 5.57

Task: GET /values?readout=IC50&item= O=S(=O)(Nc1cccc(F)n1)c1cnc(NCc2c(F)cccc2CN2CCCC2)c(Cl)c1 [Example 42, trifluoroacetic acid salt]
Result: 9.11

Task: GET /values?readout=IC50&item= Cc1nc(S(=O)(=O)Nc2cscn2)ccc1NCc1c(F)cccc1CN(C)CC1CC1 [Example 15, formic acid salt]
Result: 21.6

Task: GET /values?readout=IC50&item= Cc1cc(S(=O)(=O)Nc2cccc(F)n2)ncc1NCc1c(F)cccc1CN1CCC1 [Example 9]
Result: 21.1

Task: GET /values?readout=IC50&item= O=S(=O)(Nc1cscn1)c1cc(C(F)F)c(NCc2c(F)cccc2CN2CCCC2)cn1 [Example 17, formic acid salt]
Result: 30

Task: GET /values?readout=IC50&item= Cc1nc(S(=O)(=O)Nc2cscn2)ccc1NCc1c(F)cccc1CN1CC(C)(F)C1 [Example 14]
Result: 24.5

Task: GET /values?readout=IC50&item= Cc1nc(S(=O)(=O)Nc2ccsn2)ccc1NCc1c(F)cccc1CN1CCC1 [Example 20, trifluoroacetic acid salt]
Result: 25

Next:
Task: GET /values?readout=IC50&item= Cc1nc(NCc2c(F)cccc2CN2CCCC2)ccc1S(=O)(=O)Nc1cccc(F)n1 [Example 40, trifluoroacetic acid salt]
Result: 3.27

Task: GET /values?readout=IC50&item= Cc1cc(S(=O)(=O)Nc2cccc(F)n2)sc1NCc1c(F)cccc1CN1CCCC1 [Example 43, trifluoroacetic acid salt]
Result: 10.3

Task: GET /values?readout=IC50&item= Cc1nc(S(=O)(=O)Nc2cscn2)ccc1NCc1ccccc1CN1CCC1 [Example 26, trifluoroacetic acid salt]
Result: 30

Task: GET /values?readout=IC50&item= Cc1nc(S(=O)(=O)Nc2cscn2)ccc1NCc1c(F)cccc1CN1CCC1 [Example 4]
Result: 28.2

Task: GET /values?readout=IC50&item= Cc1nc(S(=O)(=O)Nc2cccc(F)n2)c(F)cc1NCc1ccccc1CN(C)C(C)(C)C [Example 32, trifluoroacetic acid salt]
Result: 30
